Entry source: PubChem BioAssay AID1963833

Test system: 883617-216-R-J1-PDC complex spheroid viability
Test: Anticancer human tumor 883617-216-R-J1-PDC patient-derived bladder carcinoma cell line growth inhibition [POLQ]
Settings: second compound 0.0316 µM; first compound 10 µM; active compounds read low
Test Readout: viability, T/C (%)
Respond with the bare value in %.

Q. Entry CC1COCCN1c1cc(-c2ccnn2C)c2ccnc(-c3ccn[nH]3)c2n1 (stereo unspecified) + Cc1cccc(N(C)C(=O)C2C(O)CCN2c2nc(C)cc(C(F)(F)F)c2C#N)c1 has what viability, T/C?
A. 29.4

Q. Consider the molecule shown here: O=c1[nH]cc(F)c(=O)[nH]1 + Nc1ccc(C#CCN(C(=O)Cc2ncc(C(F)(F)F)cc2C(F)(F)F)c2ccc(F)cc2)nn1 What is its recorded viability, T/C?
A. 70.3

Q. Suppose we examine the molecule CCc1cc2c(N3CCc4c(cc(Cn5ccnc5)cc4-c4cn(C)nc4C(F)(F)F)C3=O)ccnc2c(OC)n1 + COC1C(OC(N)=O)C(O)C(Oc2ccc3c(O)c(NC(=O)c4ccc(O)c(CC=C(C)C)c4)c(=O)oc3c2C)OC1(C)C ; what viability, T/C value has been reported?
A. 57.6

Q. Which viability, T/C is reported for this molecule? CNCc1ccc(-c2[nH]c3cc(F)cc4c3c2CCNC4=O)cc1 + Cc1cccc(N(C)C(=O)C2C(O)CCN2c2nc(C)cc(C(F)(F)F)c2C#N)c1
A. 82.7

Q. # input molecule: COc1cc2cc(C(=O)CCC(=O)O)sc2cc1OC + Cc1cccc(N(C)C(=O)C2C(O)CCN2c2nc(C)cc(C(F)(F)F)c2C#N)c1 ; wanted: its viability, T/C
A. 115

Q. What measured viability, T/C goes with O=C(Nc1ccc(O)c(NS(=O)(=O)c2ccc(F)cc2)c1)c1ccc(-c2ccccc2)cc1 + Cc1cccc(N(C)C(=O)C2C(O)CCN2c2nc(C)cc(C(F)(F)F)c2C#N)c1 ?
A. 65.5

###

System: 883617-216-R-J1-PDC complex spheroid viability
Experiment: Anticancer human tumor 883617-216-R-J1-PDC cell line growth inhibition [POLQ]
Conditions: second compound 0.316 µM; first compound 10 µM; active compounds read low
Kindly state viability, T/C for each of the entries shown.
# output: bare number, implied unit %

Q. Which measured viability, T/C value corresponds to CCc1cc2c(N3CCc4c(cc(Cn5ccnc5)cc4-c4cn(C)nc4C(F)(F)F)C3=O)ccnc2c(OC)n1 + COC1C(OC(N)=O)C(O)C(Oc2ccc3c(O)c(NC(=O)c4ccc(O)c(CC=C(C)C)c4)c(=O)oc3c2C)OC1(C)C ?
A. 53.5

Q. Give its viability, T/C value. Item: CC1COCCN1c1cc(C2(O)CC3CCC(C2)O3)c2cnn(-c3ccn[nH]3)c2n1 (stereo not drawn) + COC1C(OC(N)=O)C(O)C(Oc2ccc3c(O)c(NC(=O)c4ccc(O)c(CC=C(C)C)c4)c(=O)oc3c2C)OC1(C)C
A. 21.7

Q. Give the measured viability, T/C of CC1COCCN1c1cc(C2(S(C)(=N)=O)CC2)nc(-c2ccnc3[nH]ccc23)n1 (stereo not drawn) + Nc1ccc(C#CCN(C(=O)Cc2ncc(C(F)(F)F)cc2C(F)(F)F)c2ccc(F)cc2)nn1 .
A. 40.2

###

Test system: 883617-216-R-J1-PDC complex spheroid viability
Assay: Anticancer human tumor 883617-216-R-J1-PDC cell line growth inhibition [POLQ];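 also: spheroids exposed to compounds for seven days before readout; 100% = DMSO vehicle control viability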
Settings: second compound 0.316 µM; first compound 0.01 µM; active compounds read low
Protocol: Multicellular complex tumor spheroid response to Polymerase (POL) inhibitors (novobiocin, ART-558, RP6685) in combination with a variety of drugs and investigational agents in selected tumor cell lines The POL inhibitors (novobiocin, ART-558, and RP6685) were evaluated both individually and in combination with standard of care and investigational anticancer small molecules within a complex spheroid model of solid tumors. . […]
Test Readout: viability, T/C (%)
The figure you give is taken to be in %; do not add the unit.

Q. viability, T/C for CC[C@@]1(O)C(=O)OCc2c1cc1n(c2=O)Cc2cc3c(CN(C)C)c(O)ccc3nc2-1 + Cc1cccc(N(C)C(=O)C2C(O)CCN2c2nc(C)cc(C(F)(F)F)c2C#N)c1 ?
A. 68.7

Q. What value of viability, T/C has been reported for the following compound? COc1cccc(OCCCN)c1-c1cc(Nc2cnc(C#N)cn2)n[nH]1 + Nc1ccc(C#CCN(C(=O)Cc2ncc(C(F)(F)F)cc2C(F)(F)F)c2ccc(F)cc2)nn1
A. 91.3

Q. Would you mind telling me what viability, T/C value was observed for CCc1c2c(nc3ccc(O)cc13)-c1cc3c(c(=O)n1C2)COC(=O)[C@]3(O)CC + Nc1ccc(C#CCN(C(=O)Cc2ncc(C(F)(F)F)cc2C(F)(F)F)c2ccc(F)cc2)nn1 ?
A. 76

###

What viability, T/C was measured for each of the following?
Test system: 883617-216-R-J1-PDC complex spheroid viability
Experiment: Anticancer human tumor 883617-216-R-J1-PDC cell line growth inhibition [POLQ];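 also: spheroids exposed to compounds for seven days before readout; 100% = DMSO vehicle control viability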
Conditions: second compound 1 µM; first compound 1 µM; active compounds read low
// units = %; emit number, no label

Q. I'd like to know its viability, T/C. The molecule in question is CC1COCCN1c1cc(C2(O)CC3CCC(C2)O3)c2cnn(-c3ccn[nH]3)c2n1 (stereo not given) + Nc1ccc(C#CCN(C(=O)Cc2ncc(C(F)(F)F)cc2C(F)(F)F)c2ccc(F)cc2)nn1
A. 39.9

Q. # input molecule: C#Cc1c(F)ccc2cc(O)cc(-c3ncc4c(N5CC6CCC(C5)N6)nc(OCC56CCCN5CC(F)C6)nc4c3F)c12 (stereo not given) + Cc1cccc(N(C)C(=O)C2C(O)CCN2c2nc(C)cc(C(F)(F)F)c2C#N)c1 ; wanted: its viability, T/C
A. 89.9

Q. May I ask what viability, T/C has been recorded for O=c1[nH]cc(F)c(=O)[nH]1 + COC1C(OC(N)=O)C(O)C(Oc2ccc3c(O)c(NC(=O)c4ccc(O)c(CC=C(C)C)c4)c(=O)oc3c2C)OC1(C)C ?
A. 80.2

Q. Recorded viability, T/C of COc1cccc2c1C(=O)c1c(O)c3c(c(O)c1C2=O)CC(O)(C(=O)CO)CC3OC1CC(N)C(O)C(C)O1 (stereo not given) + Nc1ccc(C#CCN(C(=O)Cc2ncc(C(F)(F)F)cc2C(F)(F)F)c2ccc(F)cc2)nn1 , please.
A. 15.4

Q. Could you tell me which viability, T/C is on file for COc1cc2cc(C(=O)CCC(=O)O)sc2cc1OC + Nc1ccc(C#CCN(C(=O)Cc2ncc(C(F)(F)F)cc2C(F)(F)F)c2ccc(F)cc2)nn1 ?
A. 102

###

Would you kindly list viability, T/C for each of these molecules?
Tested on: 883617-216-R-J1-PDC complex spheroid viability
Assay: Anticancer human tumor 883617-216-R-J1-PDC cell line growth inhibition [POLQ];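 also: spheroids exposed to compounds for seven days before readout; 100% = DMSO vehicle control viability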
Conditions: second compound 0.1 µM; first compound 0.0316 µM; active compounds read low
Answer format: numeric, % implied, no suffix.

Q. Give the measured viability, T/C of COc1ccc([C@@H](O)c2cc(-c3ncnc4cc(N5CCOCC5)ccc34)c(F)cc2Cl)nn1 + Cc1cccc(N(C)C(=O)C2C(O)CCN2c2nc(C)cc(C(F)(F)F)c2C#N)c1 .
A. 98.3

Q. Could you share which viability, T/C value was measured for COc1cc(C2c3cc4c(cc3C(OC3OC5COC(C)OC5C(O)C3O)C3COC(=O)C23)OCO4)cc(OC)c1O (stereo not given) + COC1C(OC(N)=O)C(O)C(Oc2ccc3c(O)c(NC(=O)c4ccc(O)c(CC=C(C)C)c4)c(=O)oc3c2C)OC1(C)C ?
A. 109

Q. Reported viability, T/C, molecule Nc1ccn(C2OC(CO)C(O)C2(F)F)c(=O)n1 (stereo not given) + Nc1ccc(C#CCN(C(=O)Cc2ncc(C(F)(F)F)cc2C(F)(F)F)c2ccc(F)cc2)nn1 : ____
A. 34.5

Q. I would be grateful if you could share the reported viability, T/C for CNCc1ccc(-c2[nH]c3cc(F)cc4c3c2CCNC4=O)cc1 + Cc1cccc(N(C)C(=O)C2C(O)CCN2c2nc(C)cc(C(F)(F)F)c2C#N)c1 .
A. 98.4

Q. Name the reported viability, T/C value associated with the molecule CCc1cc2c(N3CCc4c(cc(Cn5ccnc5)cc4-c4cn(C)nc4C(F)(F)F)C3=O)cc(C)nc2c(OC)n1 + Nc1ccc(C#CCN(C(=O)Cc2ncc(C(F)(F)F)cc2C(F)(F)F)c2ccc(F)cc2)nn1
A. 85.5

###

Can you tell me viability, T/C for the items I'm about to list?
System: 883617-216-R-J1-PDC complex spheroid viability
Assay: Anticancer human tumor 883617-216-R-J1-PDC cell line growth inhibition [POLQ];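 also: spheroids exposed to compounds for seven days before readout; 100% = DMSO vehicle control viability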
Conditions: second compound 10 µM; first compound 0.0316 µM; active compounds read low
Report the value in % with no unit label.

Q. Reported viability, T/C for C=CC(=O)N1CCN(c2nc(=O)n(-c3c(C)ccnc3C(C)C)c3nc(-c4c(O)cccc4F)c(F)cc23)C(C)C1 (stereo not given) + COC1C(OC(N)=O)C(O)C(Oc2ccc3c(O)c(NC(=O)c4ccc(O)c(CC=C(C)C)c4)c(=O)oc3c2C)OC1(C)C : what is it?
A. 68

Q. Need viability, T/C, item O=c1[nH]cc(F)c(=O)[nH]1 + Nc1ccc(C#CCN(C(=O)Cc2ncc(C(F)(F)F)cc2C(F)(F)F)c2ccc(F)cc2)nn1
A. 128

Q. Recorded viability, T/C of O=c1[nH]cc(F)c(=O)[nH]1 + Cc1cccc(N(C)C(=O)C2C(O)CCN2c2nc(C)cc(C(F)(F)F)c2C#N)c1 , please.
A. 115

Q. Quick one: viability, T/C for CCc1cc2c(N3CCc4c(cc(Cn5ccnc5)cc4-c4cn(C)nc4C(F)(F)F)C3=O)ccnc2c(OC)n1 + COC1C(OC(N)=O)C(O)C(Oc2ccc3c(O)c(NC(=O)c4ccc(O)c(CC=C(C)C)c4)c(=O)oc3c2C)OC1(C)C ?
A. 103

Q. Which viability, T/C is listed for COc1ccc([C@@H](O)c2cc(-c3ncnc4cc(N5CCOCC5)ccc34)c(F)cc2Cl)nn1 + Cc1cccc(N(C)C(=O)C2C(O)CCN2c2nc(C)cc(C(F)(F)F)c2C#N)c1 ?
A. 117

Q. Quick one: viability, T/C for CCCS(=O)(=O)Nc1ccc(F)c(C(=O)c2c[nH]c3ncc(-c4ccc(Cl)cc4)cc23)c1F + Nc1ccc(C#CCN(C(=O)Cc2ncc(C(F)(F)F)cc2C(F)(F)F)c2ccc(F)cc2)nn1 ?
A. 106

Q. Could you tell me which viability, T/C is on file for CNCc1ccc(-c2[nH]c3cc(F)cc4c3c2CCNC4=O)cc1 + COC1C(OC(N)=O)C(O)C(Oc2ccc3c(O)c(NC(=O)c4ccc(O)c(CC=C(C)C)c4)c(=O)oc3c2C)OC1(C)C ?
A. 110

Q. Look up viability, T/C for this compound: C=CC(=O)N1CCN(c2nc(=O)n(-c3c(C)ccnc3C(C)C)c3nc(-c4c(O)cccc4F)c(F)cc23)C(C)C1 (stereo not given) + Nc1ccc(C#CCN(C(=O)Cc2ncc(C(F)(F)F)cc2C(F)(F)F)c2ccc(F)cc2)nn1
A. 64.5

Q. Field request: viability, T/C | item: CCc1c2c(nc3ccc(O)cc13)-c1cc3c(c(=O)n1C2)COC(=O)[C@]3(O)CC + COC1C(OC(N)=O)C(O)C(Oc2ccc3c(O)c(NC(=O)c4ccc(O)c(CC=C(C)C)c4)c(=O)oc3c2C)OC1(C)C
A. 63.3

Q. Could you tell me which viability, T/C is on file for CCc1cc2c(N3CCc4c(cc(Cn5ccnc5)cc4-c4cn(C)nc4C(F)(F)F)C3=O)ccnc2c(OC)n1 + Cc1cccc(N(C)C(=O)C2C(O)CCN2c2nc(C)cc(C(F)(F)F)c2C#N)c1 ?
A. 115
